Just for reference, the supplement of paper PMC9112550 is where these values come from.

# Tested on: Escherichia coli TOP10
# test_protocol: shrunken log2 fold change of peptide-encoding DNA abundance (4.5 h post-induction vs induction); higher = less antimicrobial activity (less host growth inhibition)
# condition_label: time post-induction: 4.5 h; library: site-saturation at positions 5, 18, 19, 20
Reported shrunken log2 fold change values for a set of sequences

INSERT INTO assay_data (biosequence, observed_measurement) VALUES
  ('RRIRNRPPRLPRPRPRPVYEPRP', -0.027),
  ('RRIRNRPPRLPRPRPRPSTSPRP', -0.36),
  ('RRIRIRPPRLPRPRPRPAHKPRP', 0.0491);

What does the data say about its shrunken log2 fold change? Entry: "RRIRMRPPRLPRPRPRPQNLPRP"
0.12

What does the data say about its shrunken log2 fold change? Entry: "RRIRKRPPRLPRPRPRPRQAPRP"
1.79

What does the data say about its shrunken log2 fold change? Entry: "RRIRVRPPRLPRPRPRPVSMPRP"
-0.066

What does the data say about its shrunken log2 fold change? Entry: "RRIRQRPPRLPRPRPRPISQPRP"
0.0474

What does the data say about its shrunken log2 fold change? Entry: "RRIRRRPPRLPRPRPRPTLTPRP"
0.466

What does the data say about its shrunken log2 fold change? Entry: "RRIRVRPPRLPRPRPRPDKCPRP"
-0.0495

What does the data say about its shrunken log2 fold change? Entry: "RRIRYRPPRLPRPRPRPYTGPRP"
-0.0103

What does the data say about its shrunken log2 fold change? Entry: "RRIRWRPPRLPRPRPRPNHDPRP"
-0.193

What does the data say about its shrunken log2 fold change? Entry: "RRIRMRPPRLPRPRPRPPVGPRP"
1.06

What does the data say about its shrunken log2 fold change? Entry: "RRIRMRPPRLPRPRPRPHMGPRP"
-0.0941

What does the data say about its shrunken log2 fold change? Entry: "RRIRQRPPRLPRPRPRPYIDPRP"
-0.606

What does the data say about its shrunken log2 fold change? Entry: "RRIRWRPPRLPRPRPRPTDAPRP"
-0.0515

* * *

Reported shrunken log2 fold change values for a set of sequences
# Tested on: Escherichia coli TOP10
# test_protocol: shrunken log2 fold change of peptide-encoding DNA abundance (4.5 h post-induction vs induction); higher = less antimicrobial activity (less host growth inhibition)
# condition_label: time post-induction: 4.5 h; library: site-saturation at positions 5, 18, 19, 20
Lab note: jot the number down without any unit.

The cases that follow already have their shrunken log2 fold change on record.
INSERT INTO results (biosequence, system_tested, observed_measurement) VALUES
  ('RRIRSRPPRLPRPRPRPQPMPRP', 'Escherichia coli TOP10', 0.128),
  ('RRIRSRPPRLPRPRPRPVTRPRP', 'Escherichia coli TOP10', -0.538),
  ('RRIRWRPPRLPRPRPRPQNSPRP', 'Escherichia coli TOP10', 0.0838),
  ('RRIRLRPPRLPRPRPRPLGLPRP', 'Escherichia coli TOP10', -0.253),
  ('RRIRNRPPRLPRPRPRPGADPRP', 'Escherichia coli TOP10', 0.0958),
  ('RRIRGRPPRLPRPRPRPYREPRP', 'Escherichia coli TOP10', 0.00752),
  ('RRIRKRPPRLPRPRPRPHSYPRP', 'Escherichia coli TOP10', 0.0421),
  ('RRIRCRPPRLPRPRPRPMWEPRP', 'Escherichia coli TOP10', -0.0554),
  ('RRIRQRPPRLPRPRPRPGEDPRP', 'Escherichia coli TOP10', -0.0999),
  ('RRIRFRPPRLPRPRPRPNGTPRP', 'Escherichia coli TOP10', -0.419);

What does the data say about its shrunken log2 fold change? Entry: "RRIRCRPPRLPRPRPRPFKNPRP"
-0.967

What does the data say about its shrunken log2 fold change? Entry: "RRIRYRPPRLPRPRPRPMHPPRP"
-0.0223

What does the data say about its shrunken log2 fold change? Entry: "RRIRARPPRLPRPRPRPYYSPRP"
-0.173

What does the data say about its shrunken log2 fold change? Entry: "RRIRCRPPRLPRPRPRPLKHPRP"
-0.584

* * *

# Tested on: Escherichia coli TOP10
# test_protocol: shrunken log2 fold change of peptide-encoding DNA abundance (4.5 h post-induction vs induction); higher = less antimicrobial activity (less host growth inhibition)
# condition_label: time post-induction: 4.5 h; library: site-saturation at positions 5, 18, 19, 20
// class assignment uses shrunken log2 fold change with these ranges: lower level (below -0.08), middle level (-0.08 to below 0.02), upper level (0.02 or more)

Use the examples below as a reference point.
INSERT INTO assay_data (biosequence, class_assignment) VALUES
  ('RRIRDRPPRLPRPRPRPMKNPRP', 'middle level'),
  ('RRIRVRPPRLPRPRPRPPDDPRP', 'upper level'),
  ('RRIRQRPPRLPRPRPRPAPQPRP', 'upper level');

Now examine the next entry.
Pick a category. Item: "RRIRQRPPRLPRPRPRPRMDPRP"
middle level

* * *

# System: Escherichia coli TOP10
# test_protocol: shrunken log2 fold change of peptide-encoding DNA abundance (4.5 h post-induction vs induction); higher = less antimicrobial activity (less host growth inhibition)
# condition_label: time post-induction: 4.5 h; library: site-saturation at positions 5, 18, 19, 20
Reported shrunken log2 fold change values for a set of sequences
Lab note: jot the number down without any unit.

INSERT INTO assay_data (biosequence, assay_metric, observed_measurement) VALUES
  ('RRIRDRPPRLPRPRPRPCQPPRP', 'shrunken log2 fold change', -0.144);

What does the data say about its shrunken log2 fold change? Entry: "RRIRHRPPRLPRPRPRPSGYPRP"
-0.0698

What does the data say about its shrunken log2 fold change? Entry: "RRIRRRPPRLPRPRPRPECPPRP"
0.176

What does the data say about its shrunken log2 fold change? Entry: "RRIRWRPPRLPRPRPRPALKPRP"
0.0103

What does the data say about its shrunken log2 fold change? Entry: "RRIRNRPPRLPRPRPRPLGYPRP"
-0.165

What does the data say about its shrunken log2 fold change? Entry: "RRIRPRPPRLPRPRPRPFRPPRP"
-0.0197

What does the data say about its shrunken log2 fold change? Entry: "RRIRMRPPRLPRPRPRPLQWPRP"
0.104

What does the data say about its shrunken log2 fold change? Entry: "RRIRGRPPRLPRPRPRPITVPRP"
-0.0412

What does the data say about its shrunken log2 fold change? Entry: "RRIRQRPPRLPRPRPRPSKDPRP"
-0.462

* * *

# System: Escherichia coli TOP10
# test_protocol: shrunken log2 fold change of peptide-encoding DNA abundance (4.5 h post-induction vs induction); higher = less antimicrobial activity (less host growth inhibition)
# condition_label: time post-induction: 4.5 h; library: site-saturation at positions 5, 18, 19, 20
assay_metric: shrunken log2 fold change
Lab note: jot the number down without any unit.

The cases that follow already have their shrunken log2 fold change on record.
INSERT INTO measurements (biosequence, observed_measurement) VALUES
  ('RRIRPRPPRLPRPRPRPIRYPRP', 0.00275),
  ('RRIRRRPPRLPRPRPRPCPTPRP', 0.288),
  ('RRIRDRPPRLPRPRPRPMKMPRP', 0.0275);

What does the data say about its shrunken log2 fold change? Entry: "RRIRFRPPRLPRPRPRPAYNPRP"
-0.486

What does the data say about its shrunken log2 fold change? Entry: "RRIRWRPPRLPRPRPRPPGMPRP"
0.759

What does the data say about its shrunken log2 fold change? Entry: "RRIRYRPPRLPRPRPRPETWPRP"
0.093

What does the data say about its shrunken log2 fold change? Entry: "RRIRMRPPRLPRPRPRPIWTPRP"
0.12

What does the data say about its shrunken log2 fold change? Entry: "RRIRNRPPRLPRPRPRPTNKPRP"
-0.468

* * *

# Test system: Escherichia coli TOP10
# test_protocol: shrunken log2 fold change of peptide-encoding DNA abundance (4.5 h post-induction vs induction); higher = less antimicrobial activity (less host growth inhibition)
# condition_label: time post-induction: 4.5 h; library: site-saturation at positions 5, 18, 19, 20
Reported shrunken log2 fold change values for a set of sequences
Lab note: jot the number down without any unit.

What does the data say about its shrunken log2 fold change? Entry: "RRIRCRPPRLPRPRPRPDDDPRP"
0.0464

What does the data say about its shrunken log2 fold change? Entry: "RRIRNRPPRLPRPRPRPQANPRP"
0.202

What does the data say about its shrunken log2 fold change? Entry: "RRIRARPPRLPRPRPRPHAGPRP"
0.122

What does the data say about its shrunken log2 fold change? Entry: "RRIRRRPPRLPRPRPRPWNKPRP"
0.0897

What does the data say about its shrunken log2 fold change? Entry: "RRIRIRPPRLPRPRPRPWAGPRP"
-0.291

What does the data say about its shrunken log2 fold change? Entry: "RRIRCRPPRLPRPRPRPANDPRP"
-0.799

* * *

# System: Escherichia coli TOP10;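 also: peptides expressed intracellularly from a pBAD plasmid library in pooled LB shake-flask culture, induced with 0.3% L-arabinose, DNA abundance read by NGS, three biological replicates, DESeq2 with apeglm shrinkage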
# test_protocol: shrunken log2 fold change of peptide-encoding DNA abundance (4.5 h post-induction vs induction); higher = less antimicrobial activity (less host growth inhibition)
# condition_label: time post-induction: 4.5 h; library: site-saturation at positions 5, 18, 19, 20
Please enter Condition met where shrunken log2 fold change is greater than or equal to 0.01, and Condition not met where it is lower.

INSERT INTO assay_data (biosequence, class_assignment) VALUES
  ('RRIRGRPPRLPRPRPRPNEIPRP', 'Condition met'),
  ('RRIRFRPPRLPRPRPRPDLNPRP', 'Condition not met'),
  ('RRIRQRPPRLPRPRPRPMKFPRP', 'Condition not met'),
  ('RRIRERPPRLPRPRPRPQQMPRP', 'Condition not met'),
  ('RRIRRRPPRLPRPRPRPYGWPRP', 'Condition met'),
  ('RRIRGRPPRLPRPRPRPSFVPRP', 'Condition met'),
  ('RRIRARPPRLPRPRPRPHPPPRP', 'Condition met'),
  ('RRIRIRPPRLPRPRPRPKIEPRP', 'Condition not met'),
  ('RRIRPRPPRLPRPRPRPLSKPRP', 'Condition met'),
  ('RRIRGRPPRLPRPRPRPIGCPRP', 'Condition met');

Assess whether reported shrunken log2 fold change for "RRIRIRPPRLPRPRPRPKCCPRP" sits at 0.01 or higher.
Condition not met

Assess whether reported shrunken log2 fold change for "RRIRMRPPRLPRPRPRPIVPPRP" sits at 0.01 or higher.
Condition met

Assess whether reported shrunken log2 fold change for "RRIRTRPPRLPRPRPRPRQDPRP" sits at 0.01 or higher.
Condition not met

Assess whether reported shrunken log2 fold change for "RRIRHRPPRLPRPRPRPPAHPRP" sits at 0.01 or higher.
Condition met

Assess whether reported shrunken log2 fold change for "RRIRKRPPRLPRPRPRPLFVPRP" sits at 0.01 or higher.
Condition met

Assess whether reported shrunken log2 fold change for "RRIRSRPPRLPRPRPRPAYCPRP" sits at 0.01 or higher.
Condition met

Assess whether reported shrunken log2 fold change for "RRIRYRPPRLPRPRPRPSCSPRP" sits at 0.01 or higher.
Condition not met

Assess whether reported shrunken log2 fold change for "RRIRYRPPRLPRPRPRPDFRPRP" sits at 0.01 or higher.
Condition met

Assess whether reported shrunken log2 fold change for "RRIRIRPPRLPRPRPRPCSNPRP" sits at 0.01 or higher.
Condition not met

Assess whether reported shrunken log2 fold change for "RRIRGRPPRLPRPRPRPPPRPRP" sits at 0.01 or higher.
Condition met

Assess whether reported shrunken log2 fold change for "RRIRLRPPRLPRPRPRPFSSPRP" sits at 0.01 or higher.
Condition not met

Assess whether reported shrunken log2 fold change for "RRIRQRPPRLPRPRPRPVIQPRP" sits at 0.01 or higher.
Condition not met

Assess whether reported shrunken log2 fold change for "RRIRMRPPRLPRPRPRPGTGPRP" sits at 0.01 or higher.
Condition met

Assess whether reported shrunken log2 fold change for "RRIRYRPPRLPRPRPRPMHCPRP" sits at 0.01 or higher.
Condition not met

Assess whether reported shrunken log2 fold change for "RRIRVRPPRLPRPRPRPKWEPRP" sits at 0.01 or higher.
Condition not met

Assess whether reported shrunken log2 fold change for "RRIRGRPPRLPRPRPRPHDRPRP" sits at 0.01 or higher.
Condition not met

Assess whether reported shrunken log2 fold change for "RRIRARPPRLPRPRPRPESHPRP" sits at 0.01 or higher.
Condition met

Assess whether reported shrunken log2 fold change for "RRIRFRPPRLPRPRPRPMQDPRP" sits at 0.01 or higher.
Condition not met

Assess whether reported shrunken log2 fold change for "RRIRQRPPRLPRPRPRPVIVPRP" sits at 0.01 or higher.
Condition not met

Assess whether reported shrunken log2 fold change for "RRIRCRPPRLPRPRPRPAVRPRP" sits at 0.01 or higher.
Condition met

Assess whether reported shrunken log2 fold change for "RRIRQRPPRLPRPRPRPNKVPRP" sits at 0.01 or higher.
Condition not met

Assess whether reported shrunken log2 fold change for "RRIRQRPPRLPRPRPRPWFPPRP" sits at 0.01 or higher.
Condition not met
